test system: p-IKKa levels in L363 (NIK translocated multiple myeloma) cells; assay: Assay 2: Effect of compounds on p-IKKa levels in L363 (NIK translocated multiple myeloma) cells; type: cell-based; conditions: Homo sapiens, L-363, 6 h, read-out: Assay 2 IC50 (nM), p-IKKa (Ser 176/180) in BAFF stimulated L363 cells with MG132, 6 h; average if tested more than once
Metric Name: IC50

COC[C@H](C)Nc1nccc(-c2cccc(-c3cc([C@]4(O)CCN(C)C4=O)on3)n2)n1 | 50 to 500 nM
COc1cn([C@H]2C[C@@H](O)C2)nc1Nc1nccc(-c2cccc(-c3cc([C@]4(O)CCN(C)C4=O)on3)n2)n1 | < 50 nM
Cc1ccc(Nc2nccc(-c3cccc(-c4cc([C@]5(O)CCN(C)C5=O)on4)n3)n2)nn1 | 50 to 500 nM
CN1CC[C@@](O)(c2cn(-c3cccc(-c4ccnc(Nc5cnn6ccccc56)n4)n3)nn2)C1=O | < 50 nM
CN1CC[C@@](O)(c2cc(-c3cccc(-c4ccnc(Nc5ccncc5C#N)n4)n3)no2)C1=O | 50 to 500 nM
Cc1nn(C2CCN(C)CC2)cc1Nc1nccc(-c2cccc(-c3cc([C@]4(O)CCN(C)C4=O)on3)n2)n1 | 50 to 500 nM
CN1CC[C@@](O)(c2cc(-c3cccc(-c4ccnc(Nc5ccn(C)n5)n4)n3)no2)C1=O | < 50 nM

---

system: p-IKKa levels in L363 (NIK translocated multiple myeloma) cells; experiment: Assay 2: Effect of compounds on p-IKKa levels in L363 (NIK translocated multiple myeloma) cells; assay type: cell-based; details: Homo sapiens, L-363, 6 h, read-out: Assay 2 IC50 (nM), p-IKKa (Ser 176/180) in BAFF stimulated L363 cells with MG132, 6 h; average if tested more than once
Metric Name: IC50

[2H]c1cc(-c2cccc(-c3cc([C@]4(O)CCN(C)C4=O)no3)n2)nc(Nc2ccn(C)n2)n1 | < 50 nM
CN1CC[C@@](O)(c2cc(-c3cccc(-c4ccnc(Nc5cn(C)nc5OCCO)n4)n3)no2)C1=O | 50 to 500 nM
CN1CC[C@@](O)(c2cc(-c3cccc(-c4ccnc(Nc5cnn(CC(C)(C)O)c5)n4)n3)no2)C1=O | < 50 nM
COc1nn(C)cc1Nc1nccc(-c2cccc(-c3cc([C@]4(O)CCN(C)C4=O)on3)c2)n1 | 50 to 500 nM
CC(C)[C@@H](Nc1nccc(-c2cccc(-c3cc([C@]4(O)CCN(C)C4=O)on3)n2)n1)c1cnn(C)c1 (single isomer, unassigned) | > 500 nM
CCn1ccc(Nc2nccc(-c3cccc(-c4cc([C@]5(O)CCN(C)C5=O)on4)n3)n2)n1 | < 50 nM
C[C@@H](Nc1nccc(-c2cccc(-c3cc([C@]4(O)CCN(C)C4=O)on3)n2)n1)c1cnc2ccccn12 (single isomer, unassigned) | > 500 nM

---

IC50 by entry:
tested on: p-IKKa levels in L363 (NIK translocated multiple myeloma) cells; experiment: Assay 2: Effect of compounds on p-IKKa levels in L363 (NIK translocated multiple myeloma) cells; assay type: cell-based; settings: Homo sapiens, L-363, 6 h, read-out: Assay 2 IC50 (nM), p-IKKa (Ser 176/180) in BAFF stimulated L363 cells with MG132, 6 h; average if tested more than once
Metric Name: IC50

CN1CC[C@@](O)(c2cc(-c3cccc(-c4ccnc(N[C@H]5CCC[C@@H](O)C5)n4)n3)no2)C1=O [Example 450] | 50 to 500 nM
CCC(Nc1nccc(-c2cccc(-c3cc([C@]4(O)CCN(C)C4=O)on3)n2)n1)c1ccn(CC)n1 (some centres unmarked) [Example 391] | > 500 nM
CN1CC[C@@](O)(c2cc(-c3cncc(-c4ccnc(Nc5ccn(C)n5)n4)n3)no2)C1=O [Example 95] | 50 to 500 nM
Cc1nn(-c2nccc(-c3cccc(-c4cc([C@]5(O)CCN(C)C5=O)on4)n3)n2)cc1N [Example 37] | > 500 nM
CO[C@@H](CNc1nccc(-c2cccc(-c3cc([C@]4(O)CCN(C)C4=O)on3)n2)n1)C(F)(F)F (single isomer, unassigned) [Example 463] | 50 to 500 nM
COc1ncc(Nc2nccc(-c3cccc(-c4cc([C@]5(O)CCN(C)C5=O)on4)n3)n2)cn1 [Example 112] | 50 to 500 nM
CCn1cc(Nc2nccc(-c3cccc(-c4cc([C@]5(O)CCN(C)C5=O)on4)n3)n2)c(C)n1 [Example 250] | < 50 nM
C[C@@H]1C[C@@](O)(c2cc(-c3cccc(-c4ccnc(Nc5cnn(C)c5)n4)n3)no2)C(=O)N1C [Example 286] | > 500 nM
CN1CC[C@@](O)(c2cc(-c3cccc(-c4ccnc(Nc5ncn6ccnc6n5)n4)n3)no2)C1=O [Example 315] | > 500 nM
CCOc1nn(C)cc1Nc1nccc(-c2cccc(-c3cc([C@]4(O)CCN(C)C4=O)on3)n2)n1 [Example 55] | < 50 nM
CN1CCC(n2cc(Nc3nccc(-c4cccc(-c5cc([C@@]6(O)C(=O)N(C)CC6(F)F)on5)n4)n3)cn2)CC1 [Example 10] | 50 to 500 nM
CN1CC[C@@](O)(c2cc(-c3cccc(-c4ccnc(Nc5nn(C)c6c5CNC6)n4)c3)no2)C1=O [Example 418] | > 500 nM
CN1CC[C@@](O)(c2cc(-c3cccc(-c4ccnc(Nc5ccn(C6COC6)n5)n4)n3)no2)C1=O [Example 312] | < 50 nM
C[C@H](Nc1nccc(-c2cccc(-c3cc([C@]4(O)CCN(C)C4=O)on3)n2)n1)c1ccncc1 (single isomer, unassigned) [Example 155] | 50 to 500 nM
